Source: paper PMC6270666

# assay_system: cloned human M1 mAChRs (Homo sapiens)
# Construct: purchased Perkin Elmer; host or cells: stably transfected CHO-K1 cell lines (membrane preparation)
# Sequence (P11229 1-460): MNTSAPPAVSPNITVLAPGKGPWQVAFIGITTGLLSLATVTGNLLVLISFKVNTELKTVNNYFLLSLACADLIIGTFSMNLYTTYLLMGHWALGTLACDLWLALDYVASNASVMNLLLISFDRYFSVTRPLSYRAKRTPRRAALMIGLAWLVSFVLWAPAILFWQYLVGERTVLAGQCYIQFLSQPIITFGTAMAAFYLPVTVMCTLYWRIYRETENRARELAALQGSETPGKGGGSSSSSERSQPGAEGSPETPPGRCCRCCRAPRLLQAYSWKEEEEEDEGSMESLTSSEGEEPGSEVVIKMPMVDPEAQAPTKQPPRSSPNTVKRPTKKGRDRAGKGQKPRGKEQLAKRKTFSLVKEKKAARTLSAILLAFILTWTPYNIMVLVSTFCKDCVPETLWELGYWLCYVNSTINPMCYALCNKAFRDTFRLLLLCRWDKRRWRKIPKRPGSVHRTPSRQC
# assay_protocol: M1 mAChR radioligand binding assay ([3H]N-methylscopolamine displacement)
# test_parameters: Cheng-Prusoff from IC50; [3H]N-methylscopolamine 0.2 nM, M1 mAChR membranes from CHO-K1 cells, mean ± SEM (n = 2); read-out: Ki
recorded_endpoint: Ki (µM)
Answers are plain numbers, in µM.

1) COc1cc(O)c2c(=O)c(O)c(-c3ccc(OC)c(O)c3)oc2c1 [Compound 9, 3ʹ,3,5-Trihydroxy-4ʹ,7-dimethoxyflavone] : 42

Given the molecule COc1cc(-c2cc(=O)c3c(OC)c(OC)c(OC)cc3o2)cc(OC)c1OC , what is its reported Ki?
107
